biological target: HLA-B*58:01; experiment: IEDB peptide-MHC binding, purified MHC/competitive/radioactivity; filed as Kd, often an IC50 or EC50 that approximates it; bounds were set here for any values at or beyond the usual limits of such assays; conditions: source organism: Homo sapiens
endpoint_name: Kd
Include the unit right after the number.

Q. Endpoint output: Kd of FAFVTDNTY . Value?
A. 84 nM

----------
molecular target: HLA-A*69:01; assay: IEDB peptide-MHC binding, purified MHC/competitive/fluorescence; filed as Kd, often an IC50 or EC50 that approximates it; bounds were set here for any values at or beyond the usual limits of such assays; conditions: source organism: Mycobacterium tuberculosis C
pKd: −log10 of the molar value.
endpoint_name: pKd

Q. Endpoint output: pKd of SLVAIHLAC . Value?
A. ≤ 4.70

New cases:
Q. Endpoint output: pKd of LTFLDCLYY . Value?
A. ≤ 4.70

----------
biological target: HLA-B*44:03; assay: IEDB peptide-MHC binding, purified MHC/competitive/radioactivity; filed as Kd, often an IC50 or EC50 that approximates it; bounds were set here for any values at or beyond the usual limits of such assays; details: source organism: Dengue virus 4 Philippines/H241/1956
endpoint_name: pKd
Value format note: pKd is -log10 of concentration (mol/L); just state the number.

Reference set (2 entries):
Q. Please provide the recorded pKd for SEMGANFRAG , tested on HLA-B*44:03.
A. 6.06

Q. Please provide the recorded pKd for KEVALLRTYC , tested on HLA-B*44:03.
A. 6.89

New cases:
Q. Please provide the recorded pKd for AEIQPQWIAA , tested on HLA-B*44:03.
A. 5.95

----------
target: HLA-B*39:01; assay: IEDB peptide-MHC binding, purified MHC/direct/fluorescence; filed as Kd, often an IC50 or EC50 that approximates it; bounds were set here for any values at or beyond the usual limits of such assays; settings: source organism: Coxiella burnetii Q321
endpoint_name: Kd

Q. Endpoint output: Kd of IAFTRLFTV . Value?
A. ≥ 20 µM

----------
biological target: HLA-B*58:01; test: IEDB peptide-MHC binding, purified MHC/competitive/fluorescence; bounds were set here for any values at or beyond the usual limits of such assays; conditions: source organism: Mus musculus
endpoint_name: IC50

Q. Endpoint output: IC50 of VALFSSCPVAY . Value?
A. ≥ 20 µM

----------
target: HLA-A*33:01; test: IEDB peptide-MHC binding, purified MHC/competitive/radioactivity; filed as Kd, often an IC50 or EC50 that approximates it; bounds were set here for any values at or beyond the usual limits of such assays; details: source organism: Dengue virus 3 Martinique/1243/1999
endpoint_name: Kd (nM)
Quick reminder: number only, in nM, skip the unit.

Q. Endpoint output: Kd of VSILASSLLR . Value?
A. 200

----------
molecular target: HLA-A*24:02; assay: IEDB peptide-MHC binding, purified MHC/competitive/fluorescence; filed as Kd, often an IC50 or EC50 that approximates it; bounds were set here for any values at or beyond the usual limits of such assays; settings: source organism: Entamoeba histolytica HM-1:IMSS
endpoint_name: pKd
Value format note: pKd is -log10 of concentration (mol/L); just state the number.

Q. Endpoint output: pKd of SWLYNYFVF . Value?
A. 9.52

----------
molecular target: HLA-B*15:01; assay: IEDB peptide-MHC binding, purified MHC/competitive/fluorescence; filed as Kd, often an IC50 or EC50 that approximates it; bounds were set here for any values at or beyond the usual limits of such assays; settings: source organism: Bacillus anthracis str. A0488
pKd: −log10 of the molar value.
endpoint_name: pKd

Q. Endpoint output: pKd of FVMPIFEQI . Value?
A. ≤ 4.70
